Provenance of the data: patent US8772500B2

Quick list: HUMAN MICROSOMAL STABILITY (% REMAINING AFTER 30 MINUTES) per entry.
Assay: In vitro human microsomal stability assay
Assay type: in vitro ADME
Details: 0.5 μM substrate, 0.25 mg/mL microsomal protein, pH 7.4, 37° C., NADPH, 30 minutes

{"molecule": "CC(C)(C)OC(=O)N1CCC(c2cccc(OC(F)(F)F)c2)(C(O)c2ccccn2)CC1 (centres unmarked)", "value-reported": "3.7%"}
{"molecule": "CN1CCC(c2ccc(OC(F)(F)F)cc2)(C(O)c2ccccn2)CC1 (centres unmarked)", "value-reported": "68%"}
{"molecule": "CN1CCC(c2ccc(C(F)(F)F)cc2)(C(O)c2ccccn2)CC1 (centres unmarked)", "value-reported": ">85%"}
{"molecule": "CN1CCC(c2ccccc2OC(F)(F)F)(C(O)c2ccccn2)CC1 (centres unmarked)", "value-reported": ">85%"}
{"molecule": "CN1CCC(c2ccc(Cl)c(Cl)c2)(C(O)c2ccccn2)CC1 (centres unmarked)", "value-reported": ">85%"}
{"molecule": "CN1CCC(c2cccc(OC(F)(F)F)c2)(C(O)c2ccccn2)CC1 (centres unmarked)", "value-reported": "84%"}
{"molecule": "Cl.O[C@H](c1ccccn1)C1(c2ccc(Cl)c(Cl)c2)CC(F)(F)C1", "value-reported": "52%"}

Now turn to the next molecule.
What the record says about OC(c1ccccn1)C1(c2cccc(OC(F)(F)F)c2)CCNCC1 (centres unmarked) : HUMAN MICROSOMAL STABILITY (% REMAINING AFTER 30 MINUTES) is >85%

====

Assay: In vitro rat microsomal stability assay
Format: in vitro ADME, rat (Sprague-Dawley)
Conditions: Sprague-Dawley, rat, 0.5 h, 0.5 μM, pH 7.4
If the reported RAT MICROSOMAL STABILITY (% REMAINING AFTER 30 MINUTES) equals or exceeds 10%, assign yes (1). If not, assign no (0).

Consider the following illustrative entries.
{"compound": "OC(c1ccccn1)C1(c2ccc(F)c(C(F)(F)F)c2)CCC1 (stereo not shown) [Example 15]", "class-name": "no (0)"}
{"compound": "OC1CC(c2ccnc(C(F)(F)F)c2)(C(O)c2ccccn2)C1 (stereo not shown) [Example 306]", "class-name": "yes (1)"}

Textbook exercise: given the entry OC(c1ccccn1)C1(c2ccc(C(F)(F)F)nc2)CCC1 (stereo not shown) [Example 85] , state whether its RAT MICROSOMAL STABILITY (% REMAINING AFTER 30 MINUTES) is greater than or equal to 10%.
yes (1)

Kindly determine if RAT MICROSOMAL STABILITY (% REMAINING AFTER 30 MINUTES) recorded for OC1CC(c2cccc(OC(F)(F)F)c2)(C(O)c2ccccn2)C1 (stereo not shown) [Example 273] is above or exactly 10%.
yes (1)

Identify whether the reported RAT MICROSOMAL STABILITY (% REMAINING AFTER 30 MINUTES) of the following compound is 10% or greater: OC(c1ccccn1)C1(c2cccc(F)c2)CCCO1 (stereo not shown) [Example 100]
no (0)

Does the reported RAT MICROSOMAL STABILITY (% REMAINING AFTER 30 MINUTES) for COC1CC(c2ccc(Cl)c(Cl)c2)(C(O)c2ccccn2)C1 (stereo not shown) [Example 150] fall at or above the 10% mark?
no (0)

Would you say OC(c1ccccn1)C1(c2ccccc2OC(F)(F)F)CCCO1 (stereo not shown) [Example 96] shows RAT MICROSOMAL STABILITY (% REMAINING AFTER 30 MINUTES) at minimum 10%?
no (0)

Quick check: does OC(c1ccccn1)C1(c2cccc(C(F)(F)F)c2)CC2(C1)OCCO2 (stereo not shown) [Example 242] have RAT MICROSOMAL STABILITY (% REMAINING AFTER 30 MINUTES) greater than or equal to 10%?
no (0)

Check the entry OC(C1CCc2cccnc21)C1(c2ccccc2OC(F)(F)F)CCC1 (stereo not shown) [Example 193] : does RAT MICROSOMAL STABILITY (% REMAINING AFTER 30 MINUTES) equal or exceed 10%?
no (0)

Could you tell me if the measured RAT MICROSOMAL STABILITY (% REMAINING AFTER 30 MINUTES) of N[C@H]1CCC[C@H]1[C@@H](O)C1(c2ccccc2F)CCC1 [Example 226] reaches 10% or more?
no (0)

Item OC(c1ccccn1)C1(C2=CCCOC2)CCC1 (single isomer, unassigned) [Example 269] with RAT MICROSOMAL STABILITY (% REMAINING AFTER 30 MINUTES) of 10% or above?
yes (1)

Does OC(C1CCc2cccnc21)C1(c2ccccc2C(F)(F)F)CCC1 (stereo not shown) [Example 198] have a reported RAT MICROSOMAL STABILITY (% REMAINING AFTER 30 MINUTES) of at least 10%?
no (0)

Textbook exercise: given the entry N[C@@H]1CCC[C@H]1[C@@H](O)C1(c2ccc(OC(F)(F)F)cc2)CCC1 [Example 223] , state whether its RAT MICROSOMAL STABILITY (% REMAINING AFTER 30 MINUTES) is greater than or equal to 10%.
yes (1)

Does the compound N[C@@H]1CCC[C@@H]1[C@@H](O)C1(c2ccc(OC(F)(F)F)cc2)CCC1 [Example 221] have recorded RAT MICROSOMAL STABILITY (% REMAINING AFTER 30 MINUTES) that is 10% or more?
yes (1)

Exam item: decide whether the reported RAT MICROSOMAL STABILITY (% REMAINING AFTER 30 MINUTES) for OC(c1ccccn1)C1(c2ccc(OC(F)(F)F)cc2)CCNCC1 (stereo not shown) [Example 144] is at least 10%.
yes (1)

State whether the measured RAT MICROSOMAL STABILITY (% REMAINING AFTER 30 MINUTES) reaches 10%, counting equality as reaching it, for O[C@H](c1ccccn1)C1(c2ccc(C(F)(F)F)cc2F)CCC1 [Example 27]
yes (1)

Textbook exercise: given the entry OC(c1ccccn1)C1(c2ccccc2F)CCCO1 (stereo not shown) [Example 103] , state whether its RAT MICROSOMAL STABILITY (% REMAINING AFTER 30 MINUTES) is greater than or equal to 10%.
no (0)

Decide: RAT MICROSOMAL STABILITY (% REMAINING AFTER 30 MINUTES) of O[C@@H](c1ncccn1)C1(c2ccc(C(F)(F)F)cc2)CCC1 [Example 42] >= 10%?
yes (1)

====

Molecular target: human TRPV3 (Homo sapiens)
Construct: expressed in transfected cells
Sequence (Q8NET8 whole entry): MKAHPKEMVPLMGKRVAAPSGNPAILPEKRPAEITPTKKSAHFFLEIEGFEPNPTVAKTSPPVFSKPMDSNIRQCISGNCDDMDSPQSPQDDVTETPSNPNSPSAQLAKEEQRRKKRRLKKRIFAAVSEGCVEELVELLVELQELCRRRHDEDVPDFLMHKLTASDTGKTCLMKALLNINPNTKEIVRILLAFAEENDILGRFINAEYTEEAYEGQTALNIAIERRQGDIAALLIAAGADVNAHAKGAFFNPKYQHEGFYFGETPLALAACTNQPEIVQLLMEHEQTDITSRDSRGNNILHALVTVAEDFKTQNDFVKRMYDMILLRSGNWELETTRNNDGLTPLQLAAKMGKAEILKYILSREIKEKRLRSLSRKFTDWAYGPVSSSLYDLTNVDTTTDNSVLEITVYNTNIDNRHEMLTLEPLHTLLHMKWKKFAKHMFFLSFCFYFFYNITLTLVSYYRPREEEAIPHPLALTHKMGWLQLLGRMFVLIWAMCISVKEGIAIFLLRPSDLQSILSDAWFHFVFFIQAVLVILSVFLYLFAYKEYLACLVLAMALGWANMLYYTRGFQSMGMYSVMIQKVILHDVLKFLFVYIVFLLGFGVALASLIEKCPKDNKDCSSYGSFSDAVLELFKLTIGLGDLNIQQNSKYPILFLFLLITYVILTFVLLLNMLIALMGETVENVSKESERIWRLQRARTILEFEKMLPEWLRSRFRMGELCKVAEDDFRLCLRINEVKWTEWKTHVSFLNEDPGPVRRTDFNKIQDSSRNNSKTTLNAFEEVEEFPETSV
Assay: In vitro antagonism of recombinant human TRPV3 activation (FLIPR Tetra calcium assay, 2-APB as agonist)
Format: cell-based
Conditions: HEK293 cells stably expressing human TRPV3; 2-APB 80 μM; range class; read-out: IC50 (reported range)
pIC50: −log10 of the molar value.
property-label: pIC50

{"compound": "OC(c1ccccn1)C1(c2ccc(C(F)(F)F)cn2)CC(F)(F)C1 (stereo not shown) [Example 137]", "pIC50": "5.30 to 5.96"}
{"compound": "OC(c1ccccn1)C1(c2ccc(F)c(C(F)(F)F)c2)CC(F)(F)C1 (stereo not shown) [Example 139]", "pIC50": "6.00 to 6.30"}

Looking up CC(c1ccccc1)C1(C(O)c2ccccn2)CCC1 (stereo not shown) [Example 51] , I found its pIC50 recorded as 4.70 to 5.29

// recorded pIC50 for NC1CCCCC1C(O)C1(c2cccc(OC(F)(F)F)c2)CCC1 (stereo not shown) [Example 210] : 5.30 to 5.96

Field pIC50 (entry OC(c1ccccn1)C1(c2ccc(OC(F)(F)F)cc2)CCCO1 (stereo not shown) [Example 95] ) reads 5.30 to 5.96

// pIC50 value for CC(=O)O[C@H](c1ccccn1)C1(c2ccc(OC(F)(F)F)cc2)CCC1 [Example 288] : 4.70 to 5.29

Lab note: NC1CCCC1C(O)C1(c2ccc(OC(F)(F)F)cc2)CCC1 (stereo not shown) [Example 206] gave pIC50 of 5.30 to 5.96

Entry OC(c1ccccn1)C1(c2cccc(C(F)(F)F)n2)CCC1 (stereo not shown) [Example 234] , pIC50 reported as 4.70 to 5.29

Consider OC(c1ccccn1)C1(c2ccc(F)cc2)CCOCC1 (stereo not shown) [Example 62] . Its measured pIC50 is 4.70 to 5.29

# pIC50 (compound: OC(c1ccccn1)C1(c2ccc(OC(F)(F)F)cc2)CCC1 (stereo not shown) [Example 12] ) is 6.30 to 7.30

For record OC(C1CCCc2cccnc21)C1(c2ccc(OC(F)(F)F)cc2)CCC1 (stereo not shown) [Example 177] the listed pIC50 is 5.30 to 5.96

Kindly note the recorded pIC50 for Cc1ccccc1C1(C(O)c2ccccn2)CCC1 (stereo not shown) [Example 7] , which is 4.70 to 5.29

What the record says about OC(c1ccccn1)C1(c2nc3ccc(F)cc3s2)CCC1 (stereo not shown) [Example 300] : pIC50 is 5.30 to 5.96

O[C@H](c1ccccn1)[C@]1(c2cccc(C(F)(F)F)c2)C[C@@H](O)C1 (relative stereo) [Example 264] has a reported pIC50 of 6.30 to 7.30

Reported pIC50 of OC1CC(c2cccc(OC(F)(F)F)c2)(C(O)c2ccccn2)C1 (stereo not shown) [Example 272] : 6.30 to 7.30
